assay: logP by HPLC on reversed-phase columns (EEC Directive 79/831 Annex V.A8); assay type: physicochemical; conditions: pH 2.3
# log p [a] listing for each entry below
Write the number on its own, no unit after it.

Query: Look at this compound and give its reported log p [a]. FC(F)(F)c1cnc(Nc2cccc(C3OC4COCC4O3)c2)nc1NC1CC1 (stereo not shown) [Example 111]
Response: 1.94

***
Query: Look at this compound and give its reported log p [a]. CC1(C)COC(c2cccc(Nc3ncc(Cl)c(NC4CCC4)n3)c2)OC1 [Example 19]
Response: 2.29

Query: Then what about the compound Cc1cnc(Nc2cccc(C3OCCO3)c2)nc1NC1CC1 [Example 58] ?
Response: 1.21

Query: Then what about the compound CC1(c2cccc(Nc3ncc(C(F)(F)F)c(NCC4CC4)n3)c2)OCCO1 [Example 10] ?
Response: 3.16

Query: Then what about the compound FC(F)CNc1nc(Nc2cccc(C3OCCO3)c2)ncc1Cl [Example 60] ?
Response: 1.49

Query: Then what about the compound COCC(C)Nc1nc(Nc2cccc(C3OCCCO3)c2)ncc1Cl (stereo not shown) [Example 56] ?
Response: 1.46

Query: Then what about the compound Cc1cnc(Nc2cccc(C3OCCCO3)c2)nc1NC1CC1 [Example 55] ?
Response: 1.32

Query: Then what about the compound FC(F)CNc1nc(Nc2cccc(C3OCCCO3)c2)ncc1Cl [Example 52] ?
Response: 1.6

Query: Then what about the compound Fc1cnc(Nc2cccc(C3OCCO3)c2)nc1NC1CC1 [Example 59] ?
Response: 1.14

Query: Then what about the compound CC1COC(c2cccc(Nc3ncc(C(F)(F)F)c(NC4CC4)n3)c2)O1 (stereo not shown) [Example 83] ?
Response: 2.44

Numbers sourced from patent US20110245249A1.
